# EXPERIMENTAL PROTOCOL: Heat stress test, aggregation analysed by SEC
# Format: physicochemical
# CONDITIONS USED: post stress test: 0.5 mg/mL in PBS, 75° C. for 30 min; SEC % area

| MOLECULE | Ab in native conformation (%) |
| --- | --- |
| AB-05: Humanised anti-PSMA antibody, heavy chain SEQ ID No 5, light chain SEQ ID No 10 (antibody, V domains shown) VH: EVQLVQSGAEVKKPGASVKVSCKASGYTFTEYTIHWVRQAPGKGLEWIGNINPNNGGTTYNQKFEDRVTITVDKSTSTAYMELSSLRSEDTAVYYCAAYWLFDYWGQGTTVTVSS VL: DIQMTQSPSTLSASVGDRVTITCKASQDVGTAVDWYQQKPGQAPKLLIYWASTRHTGVPDRFSGSGSGTDFTLTISRLQPEDFAVYYCQQYNAYSLTFGQGTKVDIK | 2 |
